study_target: Butyrylcholinesterase (Rattus norvegicus)
Sequence (Q9JKC1 whole entry): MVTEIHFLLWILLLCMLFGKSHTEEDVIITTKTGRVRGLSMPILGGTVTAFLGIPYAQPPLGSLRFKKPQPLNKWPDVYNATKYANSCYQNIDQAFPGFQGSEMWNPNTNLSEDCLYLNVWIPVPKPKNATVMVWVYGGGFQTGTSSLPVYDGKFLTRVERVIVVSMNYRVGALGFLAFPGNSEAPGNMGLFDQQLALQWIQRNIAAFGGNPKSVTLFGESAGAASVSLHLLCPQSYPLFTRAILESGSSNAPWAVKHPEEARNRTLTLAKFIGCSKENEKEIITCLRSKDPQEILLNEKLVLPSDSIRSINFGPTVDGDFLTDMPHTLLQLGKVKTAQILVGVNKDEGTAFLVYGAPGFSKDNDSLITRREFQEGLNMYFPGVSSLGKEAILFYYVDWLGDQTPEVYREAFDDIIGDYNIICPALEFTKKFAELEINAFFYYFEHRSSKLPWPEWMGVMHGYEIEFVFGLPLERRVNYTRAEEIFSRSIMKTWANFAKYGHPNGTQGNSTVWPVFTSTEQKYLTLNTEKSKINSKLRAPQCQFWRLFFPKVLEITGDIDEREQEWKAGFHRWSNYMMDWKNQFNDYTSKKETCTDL
procedure_text: Inhibition of BChE in rat serum after 15 mins by modified Ellman method

| compound | IC50 (µM) |
| --- | --- |
| COc1cc2c(cc1OC)C(=O)C(Cc1ccc(CN3CCCC3)cc1)C2 (configuration not stated) | 33.2 |
| COc1cc2c(cc1OC)C(=O)/C(=C/c1cccc(CN3CCCCC3)c1)O2 | 45 |
| COc1cc2c(cc1OC)C(=O)/C(=C/c1ccc(CN3CCCCC3)cc1)C2 | 84.6 |
| CCN(CC)Cc1ccc(CC2Cc3cc(OC)c(OC)cc3C2=O)cc1 (configuration not stated) | 11.7 |
| CCN(C)Cc1cccc(CC2Oc3cc(OC)c(OC)cc3C2=O)c1 (configuration not stated) | 25.9 |
| COc1cc2c(cc1OC)C(=O)C(Cc1cccc(CN3CCCC3)c1)C2 (configuration not stated) | 42.2 |
| CCN(CC)Cc1ccc(/C=C2\Cc3cc(OC)c(OC)cc3C2=O)cc1 | 82 |
| COc1cc2c(cc1OC)C(=O)C(Cc1ccc(CN3CCCCC3)cc1)C2 (configuration not stated) | 48.3 |
| COc1cc2c(cc1OC)C(=O)C(Cc1cccc(CN(C)C)c1)C2 (configuration not stated) | 25.2 |
| COc1cc2c(cc1OC)C(=O)C(Cc1cccc(CN3CCCCC3)c1)C2 (configuration not stated) | 70.4 |
| COc1cc2c(cc1OC)C(=O)C(Cc1ccc(CN(C)C)cc1)C2 (configuration not stated) | 40.7 |
| CCN(C)Cc1cccc(/C=C2\Cc3cc(OC)c(OC)cc3C2=O)c1 | 36.8 |
| CCN(C)Cc1cccc(CC2Cc3cc(OC)c(OC)cc3C2=O)c1 (configuration not stated) | 18.5 |
| COc1cc2c(cc1OC)C(=O)/C(=C/c1cccc(CN(C)C)c1)C2 | 89.3 |
| CCN(CC)Cc1cccc(CC2Cc3cc(OC)c(OC)cc3C2=O)c1 (configuration not stated) | 32 |
| COc1cc2c(cc1OC)C(=O)/C(=C/c1cccc(CN3CCCC3)c1)C2 | 41.6 |
| CCN(C)Cc1cccc(/C=C2\Oc3cc(OC)c(OC)cc3C2=O)c1 | 23.6 |
| COc1cc2c(cc1OC)C(=O)/C(=C/c1ccc(CN(C)C)cc1)C2 | 315 |
| COc1cc2c(cc1OC)C(=O)/C(=C/c1cccc(CN3CCCC3)c1)O2 | 72 |
| COc1cc2c(cc1OC)C(=O)/C(=C/c1cccc(CN3CCCCC3)c1)C2 | 55.2 |
| COc1cc2c(cc1OC)C(=O)C(Cc1cccc(CN3CCCCC3)c1)O2 (configuration not stated) | 98.1 |
| COc1cc2c(cc1OC)C(=O)C(Cc1ccc(CN3CCCC3)cc1)O2 (configuration not stated) | 49.8 |
| CCN(CC)Cc1cccc(/C=C2\Oc3cc(OC)c(OC)cc3C2=O)c1 | 65.1 |
| CCN(CC)Cc1cccc(/C=C2\Cc3cc(OC)c(OC)cc3C2=O)c1 | 71 |
| COc1cc2c(cc1OC)C(=O)C(Cc1cccc(CN3CCCC3)c1)O2 (configuration not stated) | 57.6 |
| CCN(C)Cc1ccc(CC2Cc3cc(OC)c(OC)cc3C2=O)cc1 (configuration not stated) | 34.5 |
| COc1cc2c(cc1OC)C(=O)/C(=C/c1ccc(CN3CCCC3)cc1)C2 | 26.6 |
| CCN(CC)Cc1ccc(CC2Oc3cc(OC)c(OC)cc3C2=O)cc1 (configuration not stated) | 16.4 |
| COc1cc2c(cc1OC)C(=O)/C(=C/c1ccc(CN3CCCC3)cc1)O2 | 36.4 |
| CCN(C)Cc1ccc(/C=C2\Cc3cc(OC)c(OC)cc3C2=O)cc1 | 20.1 |
| CCN(CC)Cc1cccc(CC2Oc3cc(OC)c(OC)cc3C2=O)c1 (configuration not stated) | 38.2 |
| CCN(CC)Cc1ccc(/C=C2\Oc3cc(OC)c(OC)cc3C2=O)cc1 | 47.9 |

====

Measured IC50 of individual entries
study_target: Acetylcholinesterase (Rattus norvegicus, UniProt P37136)
Sequence (P37136 whole entry): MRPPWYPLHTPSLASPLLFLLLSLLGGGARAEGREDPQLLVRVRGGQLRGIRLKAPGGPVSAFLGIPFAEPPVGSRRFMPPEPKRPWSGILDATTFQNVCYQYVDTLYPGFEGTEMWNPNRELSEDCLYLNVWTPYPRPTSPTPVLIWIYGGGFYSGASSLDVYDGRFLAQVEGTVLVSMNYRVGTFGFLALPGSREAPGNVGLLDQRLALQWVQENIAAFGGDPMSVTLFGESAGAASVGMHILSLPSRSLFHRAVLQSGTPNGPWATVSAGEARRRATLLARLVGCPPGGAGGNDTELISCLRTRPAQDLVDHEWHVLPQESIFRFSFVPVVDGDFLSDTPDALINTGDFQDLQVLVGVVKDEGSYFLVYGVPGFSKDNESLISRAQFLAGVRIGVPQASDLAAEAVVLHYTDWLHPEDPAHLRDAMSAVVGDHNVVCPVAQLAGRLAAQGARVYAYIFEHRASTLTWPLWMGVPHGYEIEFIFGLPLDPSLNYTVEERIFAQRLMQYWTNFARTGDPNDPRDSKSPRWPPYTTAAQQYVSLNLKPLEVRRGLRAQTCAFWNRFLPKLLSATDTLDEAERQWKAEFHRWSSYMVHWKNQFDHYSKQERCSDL

| molecule | IC50 / nM |
| --- | --- |
| COc1cc2c(cc1OC)C(=O)/C(=C/c1ccc(CN3CCCC3)cc1)O2 | 160 |
| COc1cc2c(cc1OC)C(=O)C(Cc1ccc(CN3CCCC3)cc1)O2 (stereo unspecified) | 620 |
| CCN(CC)Cc1cccc(CC2Oc3cc(OC)c(OC)cc3C2=O)c1 (stereo unspecified) | 1070 |
| CCN(C)Cc1ccc(/C=C2\Cc3cc(OC)c(OC)cc3C2=O)cc1 | 270 |
| CCN(CC)Cc1cccc(/C=C2\Cc3cc(OC)c(OC)cc3C2=O)c1 | 440 |
| COc1cc2c(cc1OC)C(=O)/C(=C/c1cccc(CN3CCCC3)c1)C2 | 240 |
| CCN(C)Cc1cccc(CC2Cc3cc(OC)c(OC)cc3C2=O)c1 (stereo unspecified) | 690 |
| COc1cc2c(cc1OC)C(=O)C(Cc1cccc(CN3CCCCC3)c1)C2 (stereo unspecified) | 660 |
| COc1cc2c(cc1OC)C(=O)/C(=C/c1cccc(CN3CCCC3)c1)O2 | 290 |
| COc1cc2c(cc1OC)C(=O)C(Cc1ccc(CN3CCCC3)cc1)C2 (stereo unspecified) | 150 |
| COc1cc2c(cc1OC)C(=O)/C(=C/c1ccc(CN3CCCCC3)cc1)C2 | 100 |
| CCN(CC)Cc1ccc(/C=C2\Oc3cc(OC)c(OC)cc3C2=O)cc1 | 140 |
| COc1cc2c(cc1OC)C(=O)C(Cc1cccc(CN3CCCC3)c1)C2 (stereo unspecified) | 2580 |
| CCN(CC)Cc1cccc(CC2Cc3cc(OC)c(OC)cc3C2=O)c1 (stereo unspecified) | 1480 |
| CCN(C)Cc1cccc(/C=C2\Oc3cc(OC)c(OC)cc3C2=O)c1 | 700 |
| CCN(C)Cc1cccc(CC2Oc3cc(OC)c(OC)cc3C2=O)c1 (stereo unspecified) | 1540 |
| COc1cc2c(cc1OC)C(=O)C(Cc1cccc(CN3CCCCC3)c1)O2 (stereo unspecified) | 240 |
| CCN(C)Cc1cccc(/C=C2\Cc3cc(OC)c(OC)cc3C2=O)c1 | 490 |
| COc1cc2c(cc1OC)C(=O)/C(=C/c1cccc(CN3CCCCC3)c1)O2 | 82 |
| COc1cc2c(cc1OC)C(=O)C(Cc1cccc(CN(C)C)c1)C2 (stereo unspecified) | 3740 |
| CCN(C)Cc1ccc(CC2Cc3cc(OC)c(OC)cc3C2=O)cc1 (stereo unspecified) | 380 |
| CCN(CC)Cc1ccc(CC2Oc3cc(OC)c(OC)cc3C2=O)cc1 (stereo unspecified) | 440 |
| CCN(CC)Cc1ccc(CC2Cc3cc(OC)c(OC)cc3C2=O)cc1 (stereo unspecified) | 290 |
| COc1cc2c(cc1OC)C(=O)/C(=C/c1ccc(CN3CCCC3)cc1)C2 | 45 |
| COc1cc2c(cc1OC)C(=O)C(Cc1ccc(CN3CCCCC3)cc1)C2 (stereo unspecified) | 120 |
| CCN(CC)Cc1cccc(/C=C2\Oc3cc(OC)c(OC)cc3C2=O)c1 | 1180 |
| COc1cc2c(cc1OC)C(=O)/C(=C/c1cccc(CN(C)C)c1)C2 | 2140 |
| COc1cc2c(cc1OC)C(=O)C(Cc1cccc(CN3CCCC3)c1)O2 (stereo unspecified) | 7020 |
| CCN(CC)Cc1ccc(/C=C2\Cc3cc(OC)c(OC)cc3C2=O)cc1 | 35 |
| COc1cc2c(cc1OC)C(=O)/C(=C/c1ccc(CN(C)C)cc1)C2 | 420 |
| COc1cc2c(cc1OC)C(=O)/C(=C/c1cccc(CN3CCCCC3)c1)C2 | 160 |
